Tested on: Coprococcus comes
Assay: growth AUC relative to DMSO control (median of replicates) (fraction); higher = more growth (less inhibition), active = hit call of the paper
Details: 20 µM; 24 h
Give TRUE when the value for growth AUC is at least 1. Give FALSE when it is less.

Use these answered entries as a reference point.
MOLECULE	CLASS
CCOc1ccc(C2(C(=O)OC(C#N)c3cccc(Oc4ccccc4)c3)CC2(Cl)Cl)cc1 (stereo unspecified)	TRUE
COC1CCC2(CC1)NC(=O)C(c1cc(C)ccc1C)=C2OC1OC(CO)C(O)C(O)C1O (stereo unspecified)	TRUE

Could you please find out whether `CC(=O)Oc1c(Cl)c(Cl)c(Cl)c(Cl)c1Cl` has growth AUC that meets 1 or exceeds it?
FALSE

Could you please find out whether `CS(=O)(=O)c1ccc(C(=O)O)c(N)c1` has growth AUC that meets 1 or exceeds it?
TRUE

Could you please find out whether `COc1cc(OC)c(Cl)cc1N` has growth AUC that meets 1 or exceeds it?
TRUE

Could you please find out whether `O=C(O)[C@@H](S)[C@@H](S)C(=O)O` has growth AUC that meets 1 or exceeds it?
TRUE

Value source: the supplement of paper PMC12669032
